Target: human DGKα (Homo sapiens, UniProt P23743)
Construct: TVMV protease cleavage site (C); Hexa-His (C); made in house; host or cells: Sf9 insect cells (baculovirus, Bac-to-Bac)
Sequence (P23743 with tags, fused parts or gaps): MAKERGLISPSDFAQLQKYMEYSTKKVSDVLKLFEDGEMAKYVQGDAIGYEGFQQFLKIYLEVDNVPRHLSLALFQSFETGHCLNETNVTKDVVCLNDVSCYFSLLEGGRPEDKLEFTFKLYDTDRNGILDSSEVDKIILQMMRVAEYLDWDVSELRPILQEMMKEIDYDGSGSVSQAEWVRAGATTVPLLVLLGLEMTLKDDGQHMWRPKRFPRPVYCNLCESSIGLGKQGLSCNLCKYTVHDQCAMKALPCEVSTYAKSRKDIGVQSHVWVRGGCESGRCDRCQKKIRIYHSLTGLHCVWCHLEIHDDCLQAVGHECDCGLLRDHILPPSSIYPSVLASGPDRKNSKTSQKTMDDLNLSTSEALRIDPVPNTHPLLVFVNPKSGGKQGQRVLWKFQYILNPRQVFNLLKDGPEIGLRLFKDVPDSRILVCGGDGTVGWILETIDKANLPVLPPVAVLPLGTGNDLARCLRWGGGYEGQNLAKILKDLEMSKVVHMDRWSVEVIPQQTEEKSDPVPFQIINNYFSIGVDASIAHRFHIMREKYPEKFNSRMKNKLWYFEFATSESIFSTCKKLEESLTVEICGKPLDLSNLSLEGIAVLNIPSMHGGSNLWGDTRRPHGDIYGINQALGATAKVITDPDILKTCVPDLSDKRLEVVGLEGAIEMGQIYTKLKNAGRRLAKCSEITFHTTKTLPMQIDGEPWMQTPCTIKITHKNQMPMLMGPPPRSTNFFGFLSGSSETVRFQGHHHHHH
Assay: DGKα LIPGLO assay (extruded liposome substrate), in vitro DGK inhibition
Type: biochemical
Conditions: DGKα liposome (LIPGLO) assay; read-out: DGKa LIPGLO IC50
ASSAY ENDPOINT: IC50 (nM)

Example cases with answers are listed next.
C[C@@H]1CN(c2c(C#N)c(=O)n(C)c3ccc(C#N)nc23)CCN1Cc1ccccc1OC(F)(F)F: 270
C[C@@H]1CN(c2c(C#N)c(=O)n(C)c3ccc(C#N)nc23)CCN1Cc1c(F)cccc1Cl: 1500
Cc1ccc(C(c2ncccc2F)N2CCN(c3c(C#N)c(=O)n(C)c4ccc(C#N)nc34)C[C@H]2C)cc1 (single isomer, unassigned) [Example 892]: 1800
Cc1ccc(C(c2cccc(Cl)c2)N2CCN(c3c(C#N)c(=O)n(C)c4ccc(C#N)nc34)C[C@H]2C)nc1 (single isomer, unassigned) [Example 929]: 7700
COc1ccc(C(C)N2C[C@H](C)N(c3c(C#N)c(=O)n(C)c4ccc(C#N)nc34)C[C@H]2C)nc1 (single isomer, unassigned) [Example 799]: 860
C[C@@H]1CN(c2c(C#N)c(=O)n(C)c3ccc(C#N)nc23)[C@@H](C)CN1C(c1ccc(Cl)cc1)c1ncccc1F (single isomer, unassigned) [Example 819]: 2300
C[C@@H]1CN(c2c(C#N)c(=O)n(C)c3ccc(C#N)nc23)CCN1C(c1ccc(F)cc1)c1cccc(F)c1 (stereo partly drawn) [Example 880]: 6500
CC(C)c1noc(C(c2ccc(F)cc2)N2C[C@H](C)N(c3cc(=O)n(C)c4ccc(C#N)nc34)C[C@H]2C)n1 (single isomer, unassigned) [Example 747]: 300
CCc1ccccc1C(c1ccc(F)cc1)N1CCN(c2c(C#N)c(=O)n(C)c3ccc(C#N)nc23)C[C@H]1C (stereo partly drawn) [Example 876]: 2400
C[C@@H]1CN(c2c(C#N)c(=O)n(C)c3ccc(C#N)nc23)CCN1C(c1ccc(F)cc1)c1ccccn1 (single isomer, unassigned) [Example 919]: 980

[1] CC(c1ccc(Br)cc1)N1C[C@H](C)N(c2c(C#N)c(=O)n(C)c3ccc(C#N)nc23)C[C@H]1C (single isomer, unassigned) [Example 789]
[2] C[C@@H]1CN(c2cc(=O)n(C)c3ccc(C#N)nc23)[C@@H](C)CN1C(c1ccc(F)cc1)c1cscn1 (stereo partly drawn) [Example 721]
[3] Cc1cc(C(C)N2C[C@H](C)N(c3c(C#N)c(=O)n(C)c4ccc(C#N)nc34)C[C@H]2C)no1 (single isomer, unassigned) [Example 803]
[4] C[C@@H]1CN(c2c(C#N)c(=O)n(C)c3ccc(C#N)nc23)CCN1C(c1ccc(Cl)cc1)c1ccc(F)cn1 (single isomer, unassigned) [Example 901]
*Q* Arrange these 4 compounds in increasing order of IC50. Rank the items, then write their labels in that order.
*A* 2, 4, 1, 3
(2: 72 nM, 4: 390 nM, 1: 1200 nM, 3: 2000 nM)

[A] C[C@@H]1CN(c2c(C#N)c(=O)n(C)c3ccc(C#N)nc23)CCN1C(c1ccc(F)cc1)c1ncccc1F (single isomer, unassigned) [Example 893]
[B] CC(c1ccc(F)cc1)N1C[C@H](C)N(c2c(C#N)c(=O)n(C)c3ccc(C#N)nc23)C[C@H]1C (single isomer, unassigned) [Example 782]
[C] C[C@@H]1CN(c2cc(=O)n(C)c3ccc(C#N)nc23)[C@@H](C)CN1C(c1ccc(F)cc1)c1nc(C2CC2)co1 (single isomer, unassigned) [Example 777]
[D] C[C@@H]1CN(c2c(C#N)c(=O)n(C)c3ccc(C#N)nc23)[C@@H](C)CN1C(c1cccc(F)c1)c1ccc(C(F)(F)F)cn1 (single isomer, unassigned) [Example 841]
[E] CCc1ccc(C(c2ccc(F)cc2)N2C[C@H](C)N(c3c(C#N)c(=O)n(C)c4ccc(C#N)nc34)C[C@H]2C)cc1 (single isomer, unassigned) [Example 811]
*Q* Arrange these 5 compounds in increasing order of IC50. Rank the items, then write their labels in that order.
*A* C, B, A, E, D
(C: 68 nM, B: 180 nM, A: 920 nM, E: 9300 nM, D: 83000 nM)

[P] CC(c1ccc(F)cc1F)N1CCN(c2c(C#N)c(=O)n(C)c3ccc(C#N)nc23)C[C@H]1C (single isomer, unassigned) [Example 969]
[Q] CC1CN(C(c2ccc(F)cc2)c2nc(C(C)(C)C)no2)C(C)CN1c1c(C#N)c(=O)n(C)c2ccc(C#N)nc12 (single isomer, unassigned) [Example 862]
*Q* Could you check which of P and Q has a smaller value for IC50? Please identify the chosen entry by its label.
*A* Q
(Q: 290 nM, P: 760 nM)
